meta.source: ChEMBL document CHEMBL1143602

# ASSAY TARGET: Heat shock protein HSP 90-alpha (Mus musculus, UniProt P07901)
# ASSAY PROCEDURE: Displacement of 5 nM GM-BODIPY from mouse heat shock protein HSP90-alpha
pEC50: −log10 of the molar value.
QUANTITY NAME: pEC50

>  <MOLECULE>
C#CCCCn1c(Sc2cc(C)cc(C)c2)nc2c(N)ncnc21

>  <QUANTITY NAME>
pEC50

>  <ENDPOINT VALUE>
4.97

$$$$

(1) C#CCCCn1c(Sc2cc(OC)c(OC)c(OC)c2)nc2c(N)ncnc21
(2) COc1cc(Sc2nc3c(N)ncnc3n2CCOC(C)C)c(Cl)cc1Cl
Asked: Given the listed items, does 1 or 2 have the lesser reported pEC50? Write down the label attached to your selection.
Given back: 2

(1) COc1cc([S+]([O-])c2nc3c(N)ncnc3n2CCOC(C)C)cc(OC)c1OC (configuration not stated)
(2) C#CCCCn1c(Sc2ccc(C)cc2C)nc2c(N)ncnc21
(3) Nc1ncnc2[nH]c(Sc3cc(Cl)ccc3Cl)nc12
(4) Nc1[nH]cnc2nc(Sc3cc(Cl)c(Cl)cc3Cl)nc1-2
(5) C#CCCCn1c(Sc2ccccc2OC)nc2c(N)ncnc21
Asked: Sort (5 molecules) by pEC50: min first. List the labels, following the order given in the request.
Given back: 3, 5, 4, 2, 1
(3: 4.07, 5: 4.46, 4: 4.81, 2: 5.07, 1: 5.64)

(a) C#CCCCn1c(Sc2cc(OC)c(OC)c(OC)c2)nc2c(N)nc(F)nc21
(b) COc1cccc([S+]([O-])c2nc3c(N)ncnc3n2CCOC(C)C)c1 (configuration not stated)
(c) CCCCn1c([S+]([O-])c2cc(OC)c(OC)c(OC)c2)nc2c(N)ncnc21 (configuration not stated)
(d) C#CCCCn1c(Sc2cc(Cl)c(Cl)cc2Cl)nc2c(N)ncnc21
Asked: // ranking: key=pEC50, reverse=True List the labels, following the order given in the request.
Given back: a, b, d, c

----------
# ASSAY TARGET: Heat shock protein HSP 90-alpha (Homo sapiens, UniProt P07900)
# ASSAY PROCEDURE: Effective concentration of compound against heat shock protein HSP90 determined in normal brain cells
QUANTITY NAME: pEC50
In plain terms, pEC50 is the concentration in mol/L turned into minus its base-10 logarithm.

>  <SMILES DATA>
C#CCCCn1c(Sc2cc(OC)ccc2OC)nc2c(N)ncnc21

>  <pEC50>
4.52

$$$$

Asked: Give me measured pEC50, please, for this compound: C#CCCCn1c(Sc2cc3c(cc2Br)OCO3)nc2c(N)ncnc21
Given back: 4.40

Asked: Give me measured pEC50, please, for this compound: C#CCCCn1c(Sc2cc(OC)ccc2I)nc2c(N)ncnc21
Given back: 4.52

Asked: Give me measured pEC50, please, for this compound: C#CCCCn1c(Sc2cc(OC)ccc2Br)nc2c(N)ncnc21
Given back: 4.84

----------
# ASSAY TARGET: Heat shock protein HSP 90-alpha (Homo sapiens, UniProt P07900)
# ASSAY PROCEDURE: Effective concentration against heat shock protein HSP90-alpha in SKBr3 cells
# Format: functional, cell-based
pEC50: −log10 of the molar value.
QUANTITY NAME: pEC50

See these solved cases before continuing.
>  <SMILES DATA>
C#CCCCn1c(Sc2cc(OC)ccc2I)nc2c(N)ncnc21

>  <pEC50>
7.52

$$$$
>  <SMILES DATA>
C#CCCCn1c(Sc2cc(OC)ccc2OC)nc2c(N)ncnc21

>  <pEC50>
6.80

$$$$
>  <SMILES DATA>
C#CCCCn1c(Sc2cc(OC)c(OC)c(OC)c2)nc2c(N)ncnc21

>  <pEC50>
5.38

$$$$
>  <SMILES DATA>
C#CCCCn1c(Cc2cc(OC)c(OC)c(OC)c2)nc2c(N)nc(F)nc21

>  <pEC50>
5.80

$$$$
>  <SMILES DATA>
C#CCCCn1c(Cc2cc(OC)c(OC)c(OC)c2)nc2c(N)ncnc21

>  <pEC50>
5.44

$$$$

(A) C#CCCCn1c(Sc2cc(OC)c(OC)c(OC)c2)nc2c(N)nc(F)nc21
(B) C#CCCCn1c(Sc2cc3c(cc2Br)OCO3)nc2c(N)ncnc21
Asked: Lab notebook, comparison: A versus B , higher pEC50 goes to which? Write down the label attached to your selection.
Given back: B
(B: 7.70, A: 5.70)
